Experiment: probe aInhba binding on compound microarray – biochemical, small-molecule microarray, 635/667 nm fluorescence, primary screen (AID 1148);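 note: score merges 667nm spot fluorescence with signal-to-noise for antibody binding to printed compounds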
Settings: higher = more signal
Catalogue of compounds with associated composite z-score
Write the number on its own, no unit after it.

Solved cases below.
CC(C)C[C@@H]1NC(=O)[C@@]23C(=O)N[C@@H](Cc4ccccc4)C2[C@H](C)[C@@]2(C)O[C@H]2C3/C=C/C/C=C\CNC(=O)CNC1=O (stereo partly drawn)    -0.179
COC(=O)C(CC#Cc1ccc2c(c1)[C@]1(C(=O)N2)[C@H](C(=O)NC[C@H](O)c2ccccc2)[C@H]2C(=O)O[C@H](c3ccccc3)[C@H](c3ccccc3)N2[C@@H]1c1ccccc1OCCO)C(=O)OC    0.0154
CCCNC(=O)[C@@]1(c2ccc([N+](=O)[O-])cc2)CC(=O)N(C(C)C)[C@@H]1c1ccc(CO)cc1    -0.153
Cc1ccc(F)cc1S(=O)(=O)N[C@H]1CCN(Cc2ccc(OC(C)C)cc2)C1    -0.0963

query: Record request: composite z-score value, item COc1ccc(C(O)C2C=CC3C(=O)N(c4ccccc4)C(=O)C3N2Nc2ccc([N+](=O)[O-])cc2)c2ccccc12 (stereo not drawn)
result: 0.12

query: Record request: composite z-score value, item "COCCCNC(=O)[C@@]1(CCS(=O)(=O)c2ccccc2)COC(c2ccc(OCCCO)cc2)=N1"
result: 0.271

query: Record request: composite z-score value, item "O=C(NCc1ccc(F)cc1)[C@H]1C[C@H]2C(=O)N3CCC[C@H]3C(=O)N2[C@H]1c1ccc(O)cc1"
result: -0.443

query: Record request: composite z-score value, item "COC(=O)[C@H](Cc1ccccc1)N1CC2=CCCC=C[C@@H]2[C@H]1[C@H](O)Cc1ccccc1"
result: -0.0332

query: Record request: composite z-score value, item O=C1OCCC=C[C@H]2OC34C=CCN(c5ccc6ccccc6c5)C(=O)[C@H]3N(CCO)C(=O)[C@@H]4C12 (stereo partly drawn)
result: -0.753

query: Record request: composite z-score value, item N#Cc1ccc(NN2C(C(O)C3CC=CCC3)C=CC3C(=O)N(c4ccccc4)C(=O)C32)cc1 (stereo not drawn)
result: -0.0131

query: Record request: composite z-score value, item "COC(=O)[C@H](Cc1ccc(O)cc1)N[C@@H](/C=C/C1CC1)[C@H](O)Cc1ccccc1"
result: -0.153

query: Record request: composite z-score value, item CC(C)C(CO)N1C(=O)[C@@H]2C3C(=O)OCCC/C=C\[C@H]3OC23C=CCN(Cc2ccccc2)C(=O)[C@@H]13 (stereo partly drawn)
result: 0.0212

query: Record request: composite z-score value, item "CCOC(=O)C1=CC[C@@H](c2ccccc2)N(S(=O)(=O)c2ccc(C)cc2)[C@H]1c1ccccc1I"
result: 0.849

query: Record request: composite z-score value, item "C[C@]1(C(=O)O)c2ccccc2C(=O)N(Cc2cc(F)cc(C(F)(F)F)c2)[C@H]1c1ccc(CO)cc1"
result: -0.152

query: Record request: composite z-score value, item "CCOC(=O)C[C@H]1[C@H](OC(=O)Cc2ccc3c(c2)OCO3)[C@@H](NC(=O)c2ccc3ccccc3n2)c2cc(OCCCO)ccc2N1C(=O)Cc1ccc(OC)cc1"
result: -0.101

query: Record request: composite z-score value, item "O=C(NCc1ccccc1)[C@@H]1c2ccccc2C(=O)N(Cc2cc(C(F)(F)F)cc(C(F)(F)F)c2)[C@H]1c1ccc(CO)cc1"
result: -0.0405

query: Record request: composite z-score value, item "COc1ccccc1CN1C(=O)c2ccccc2[C@](Cc2ccccc2I)(C(=O)NCC(C)C)[C@@H]1c1ccc(CO)cc1"
result: 0.126

query: Record request: composite z-score value, item "COc1ccc(C(=O)Nc2ccc3c(c2)[C@@]2(O[C@H](CCO)[C@@H]([Si](C)(C)c4ccc(OC)cc4)[C@@H]2C)C(=O)N3Cc2ccccc2)cc1"
result: 0.288

query: Record request: composite z-score value, item CC(C)(C)N1CC=CC23O[C@@H]4C=CCOC(=O)[C@@H]4[C@H]2C(=O)N(CCO)[C@@H]3C1=O (stereo partly drawn)
result: -0.32

query: Record request: composite z-score value, item C=CCC(OC(C)=O)[C@@H]1[C@@H](N(Cc2cccc3ccccc23)C(=O)Cc2ccc(OC)cc2)c2cc(OCCCO)ccc2N1C(=O)c1ccc2ccccc2c1 (stereo partly drawn)
result: -0.152

query: Record request: composite z-score value, item "CN(C)C(=O)[C@@]1(Cc2ccccc2CN=[N+]=[N-])COC(c2ccc(OCCCO)cc2)=N1"
result: -0.0288
